# STUDY SYSTEM: human uPAR (uPAR-Fc) (Homo sapiens, UniProt Q03405)
# Construct: comprising amino acids Leu23-Arg303 according to UniProt entry Q03405.1; purchased R&D Systems 10378-UK-100
# Sequence (Q03405 23-303): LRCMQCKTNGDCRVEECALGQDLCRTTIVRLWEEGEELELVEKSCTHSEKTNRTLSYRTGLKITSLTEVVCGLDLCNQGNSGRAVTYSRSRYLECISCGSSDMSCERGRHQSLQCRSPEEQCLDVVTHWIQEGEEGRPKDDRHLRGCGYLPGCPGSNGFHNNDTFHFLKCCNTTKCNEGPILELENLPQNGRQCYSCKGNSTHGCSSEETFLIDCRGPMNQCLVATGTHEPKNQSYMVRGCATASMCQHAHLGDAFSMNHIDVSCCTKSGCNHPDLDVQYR
# EXPERIMENTAL DETAILS: Surface plasmon resonance (SPR) assay, single cycle kinetics
# Type: binding
# TEST CONTEXT: pKD category for uPAR SPR activity assay; uPAR-Fc on Protein A-Chip, 25°C; read-out: pKD CAT (converted)
Where a SMILES comes first, the peptide text is derived from it. Bridges are numbered along the chain shown (N, C = ends). [ ]: non-standard residue; d: D form. The star is where a group is joined. DOTA = O=C(O)CN1CCN(CC(=O)O)CCN(CC(=O)*)CCN(CC(=O)O)CC1; Hyp = O=C(O)[C@@H]1C[C@@H](O)CN1; 4Pal = N[C@@H](Cc1ccncc1)C(=O)O; Cha = N[C@@H](CC1CCCCC1)C(=O)O; Cit = NC(=O)NCCC[C@H](N)C(=O)O; Nva = CCC[C@H](N)C(=O)O; Pentanoyl = CCCCC(=O)*; Aib = CC(C)(N)C(=O)O
MEASURED PROPERTY: Kd

Below are worked cases with known answers.
COMPOUND	MEASURED PROPERTY	TEST RESULT
CCCCC(=O)N[C@H]1CSSC[C@@H](C(N)=O)NC(=O)[C@H](CCC)NC(=O)[C@H]([C@@H](C)CC)NC(=O)C(C)(C)NC(=O)[C@@H]2CCCN2C(=O)[C@H](Cc2ccccc2)NC(=O)[C@H](Cc2ccc(O)cc2)NC(=O)[C@H](CCCCNC(=O)CN2CCN(CC(=O)O)CCN(CC(=O)O)CCN(CC(=O)O)CC2)NC(=O)[C@H](CCCNC(N)=O)NC1=O [UPAR-299] (Pentanoyl-C[Cit]K(DOTA)YFP[Aib]I[Nva]C-NH2; disulfide 1-10)	Kd	< 1.58 nM
CCCCC(=O)N[C@H]1CSSC[C@@H](C(N)=O)NC(=O)[C@H](CCC)NC(=O)[C@H]([C@@H](C)CC)NC(=O)[C@@H]2C[C@@H](O)CN2C(=O)[C@H](CC2CCCCC2)NC(=O)[C@H](Cc2ccccc2)NC(=O)[C@H](Cc2ccc(O)cc2)NC(=O)[C@H](CCC(N)=O)NC(=O)[C@H](CCCNC(=N)N)NC1=O [UPAR-266] (Pentanoyl-CRQYF[Cha][Hyp]I[Nva]C-NH2; disulfide 1-10)	Kd	< 1.58 nM

Alright, here's another compound for you.
Exercise: Find the measured Kd of CCCCC(=O)N[C@H]1CSSC[C@@H](C(N)=O)NC(=O)[C@H](CCC)NC(=O)[C@H]([C@@H](C)CC)NC(=O)[C@@H]2C[C@@H](O)CN2C(=O)[C@@H]2CCCN2C(=O)[C@H](Cc2ccccc2)NC(=O)[C@H](Cc2ccncc2)NC(=O)[C@H](CCCCNC(=O)CN2CCN(CC(=O)O)CCN(CC(=O)O)CCN(CC(=O)O)CC2)NC(=O)[C@H](CCCNC(N)=O)NC1=O [UPAR-336] (Pentanoyl-C[Cit]K(DOTA)[4Pal]FP[Hyp]I[Nva]C-NH2; disulfide 1-10) and report it.
Key: < 1.58 nM

###

pIC50: −log10 of the molar value. Where a SMILES comes first, the peptide text is derived from it. Bridges are numbered along the chain shown (N, C = ends). [ ]: non-standard residue; d: D form. The star is where a group is joined. DOTA = O=C(O)CN1CCN(CC(=O)O)CCN(CC(=O)*)CCN(CC(=O)O)CC1; Gly(cPent) = N[C@H](C(=O)O)C1CCCC1; Hyp = O=C(O)[C@@H]1C[C@@H](O)CN1; hPhe = N[C@@H](CCc1ccccc1)C(=O)O; Pentanoyl(4-Me) = CC(C)CCC(=O)*; Cit = NC(=O)NCCC[C@H](N)C(=O)O; NMeL = CN[C@@H](CC(C)C)C(=O)O; Aic = NC1(C(=O)O)Cc2ccccc2C1; Nva = CCC[C@H](N)C(=O)O; Pentanoyl = CCCCC(=O)*
// uPAR-expressing HEC-265 human endometrial adenocarcinoma cells (Homo sapiens) pIC50 records

MOLECULE	STUDY SYSTEM	MEASURED PROPERTY	TEST RESULT
CCCCC(=O)N[C@H]1CSSC[C@@H](C(N)=O)NC(=O)[C@H](CCC)NC(=O)[C@H]([C@@H](C)CC)NC(=O)[C@@H]2C[C@@H](O)CN2C(=O)[C@H](CC(C)C)N(C)C(=O)[C@H](Cc2ccccc2)NC(=O)[C@H](Cc2ccc(O)cc2)NC(=O)[C@H](CCC(N)=O)NC(=O)[C@H](CCCNC(=N)N)NC1=O [UPAR-302] (Pentanoyl-CRQYF[NMeL][Hyp]I[Nva]C-NH2; disulfide 1-10)	uPAR-expressing HEC-265 human endometrial adenocarcinoma cells (Homo sapiens)	pIC50	7.50 to 7.90
CCCCC(=O)N[C@H]1CSSC[C@@H](C(N)=O)NC(=O)[C@H](CCC)NC(=O)[C@H]([C@@H](C)CC)NC(=O)[C@@H]2C[C@@H](O)CN2C(=O)[C@@H]2CCCN2C(=O)C2(Cc3ccccc3C2)NC(=O)[C@H](Cc2ccc(O)cc2)NC(=O)[C@H](CCCCNC(=O)CN2CCN(CC(=O)O)CCN(CC(=O)O)CCN(CC(=O)O)CC2)NC(=O)[C@H](CCCNC(N)=O)NC1=O [UPAR-417] (Pentanoyl-C[Cit]K(DOTA)Y[Aic]P[Hyp]I[Nva]C-NH2; disulfide 1-10)	uPAR-expressing HEC-265 human endometrial adenocarcinoma cells (Homo sapiens)	pIC50	≤ 6.90
CCCCC(=O)N[C@H]1CSSC[C@@H](C(N)=O)NC(=O)[C@H](CCC)NC(=O)[C@H]([C@@H](C)CC)NC(=O)[C@H](CO)NC(=O)[C@@H]2CCCN2C(=O)[C@H](Cc2ccccc2)NC(=O)[C@H](Cc2ccc(O)cc2)NC(=O)[C@H](CCC(N)=O)NC(=O)[C@H](CCCNC(=N)N)NC1=O [UPAR-154] (Pentanoyl-CRQYFPSI[Nva]C-NH2; disulfide 1-10)	uPAR-expressing HEC-265 human endometrial adenocarcinoma cells (Homo sapiens)	pIC50	≥ 8.00

Exercise: Quote pIC50 with test system uPAR-expressing HEC-265 human endometrial adenocarcinoma cells (Homo sapiens) for CCC[C@@H]1NC(=O)[C@H]([C@@H](C)CC)NC(=O)[C@@H]2C[C@@H](O)CN2C(=O)[C@@H]2CCCN2C(=O)[C@H](Cc2ccccc2)NC(=O)[C@H](Cc2ccc(O)cc2)NC(=O)[C@H](CCC(N)=O)NC(=O)[C@H](CCCNC(=N)N)NC(=O)[C@@H](NC(=O)[C@H](CCc2ccccc2)NC(C)=O)CSSC[C@@H](C(N)=O)NC1=O [UPAR-484] (Ac-[hPhe]CRQYFP[Hyp]I[Nva]C-NH2; disulfide 2-11)
Key: ≥ 8.00

Exercise: Quote pIC50 with test system uPAR-expressing HEC-265 human endometrial adenocarcinoma cells (Homo sapiens) for CC(C)CCC(=O)N[C@H]1CSSC[C@@H](C(N)=O)NC(=O)[C@H](CC(C)C)NC(=O)[C@H](C2CCCC2)NC(=O)[C@@H](C)NC(=O)[C@@H]2CCCN2C(=O)[C@H](Cc2ccccc2)NC(=O)[C@H](Cc2ccc(O)cc2)NC(=O)[C@H](CCC(N)=O)NC(=O)[C@H](CCCNC(N)=O)NC1=O [UPAR-349] ({Pentanoyl(4-Me)}-C[Cit]QYFP[dA][Gly(cPent)]LC-NH2; disulfide 1-10)
Key: ≥ 8.00

###

# STUDY SYSTEM: human uPAR (uPAR-Fc) (Homo sapiens, UniProt Q03405)
# Construct: comprising amino acids Leu23-Arg303 according to UniProt entry Q03405.1; purchased R&D Systems 10378-UK-100
# EXPERIMENTAL DETAILS: Surface plasmon resonance (SPR) assay, single cycle kinetics
# Type: binding
# TEST CONTEXT: pKD category for uPAR SPR activity assay; uPAR-Fc on Protein A-Chip, 25°C; read-out: pKD CAT (converted)
Where a SMILES comes first, the peptide text is derived from it. Bridges are numbered along the chain shown (N, C = ends). [ ]: non-standard residue; d: D form. The star is where a group is joined. X4 = C[N+](C)(CCCC[C@H](NC(=O)CN1CCN(CC(=O)O)CCN(CC(=O)O)CCN(CC(=O)O)CC1)C(=O)*)CCCS(=O)(=O)[O-]; Pro(trans-4-F) = O=C(O)[C@@H]1C[C@@H](F)CN1; Pro(cis-4-F) = O=C(O)[C@@H]1C[C@H](F)CN1; Dopa = N[C@@H](Cc1ccc(O)c(O)c1)C(=O)O; Hyp = O=C(O)[C@@H]1C[C@@H](O)CN1; Pentanoyl(4-Me) = CC(C)CCC(=O)*; Cit = NC(=O)NCCC[C@H](N)C(=O)O; Butoxycarbonyl = CCCCOC(=O)*; Pen = CC(C)(S)[C@H](N)C(=O)O; hCys = N[C@@H](CCS)C(=O)O; Nva = CCC[C@H](N)C(=O)O; Pentanoyl = CCCCC(=O)*
MEASURED PROPERTY: Kd

COMPOUND	TEST RESULT
CC[C@H](C)[C@@H]1NC(=O)[C@@H]2C[C@@H](F)CN2C(=O)[C@@H]2CCCN2C(=O)[C@H](Cc2ccccc2)NC(=O)[C@H](Cc2ccc(O)cc2)NC(=O)[C@H](CCC(N)=O)NC(=O)[C@H](CCCNC(N)=O)NC(=O)[C@@H](NC(=O)CCC(C)C)CSSC[C@@H](C(N)=O)NC(=O)[C@H](CC(C)C)NC1=O [UPAR-220] ({Pentanoyl(4-Me)}-C[Cit]QYFP[Pro(trans-4-F)]ILC-NH2; disulfide 1-10)	< 1.58 nM
CCCCC(=O)N[C@H]1CSSCC[C@@H](C(N)=O)NC(=O)[C@H](CCC)NC(=O)[C@H]([C@@H](C)CC)NC(=O)[C@@H]2C[C@@H](O)CN2C(=O)[C@@H]2CCCN2C(=O)[C@H](Cc2ccccc2)NC(=O)[C@H](Cc2ccc(O)cc2)NC(=O)[C@H](CCC(N)=O)NC(=O)[C@H](CCCNC(=N)N)NC1=O [UPAR-213] (Pentanoyl-CRQYFP[Hyp]I[Nva][hCys]-NH2; disulfide 1-10)	1.58 to 10 nM
CCCCOC(=O)N[C@H]1CSSC[C@@H](C(N)=O)NC(=O)[C@H](CCC)NC(=O)[C@H]([C@@H](C)CC)NC(=O)[C@@H]2C[C@@H](O)CN2C(=O)[C@@H]2C[C@H](F)CN2C(=O)[C@H](Cc2ccccc2)NC(=O)[C@H](Cc2ccc(O)c(O)c2)NC(=O)[C@H](CCCCNC(=O)[C@H](CCCC[N+](C)(C)CCCS(=O)(=O)[O-])NC(=O)CN2CCN(CC(=O)O)CCN(CC(=O)O)CCN(CC(=O)O)CC2)NC(=O)[C@H]([C@@H](C)O)NC1=O [UPAR-194] (Butoxycarbonyl-CTK(X4)[Dopa]F[Pro(cis-4-F)][Hyp]I[Nva]C-NH2; disulfide 1-10)	< 1.58 nM

Exercise: Quote Kd with test system human uPAR (uPAR-Fc) (Homo sapiens, UniProt Q03405) for CCCCC(=O)N[C@H]1CSSC(C)(C)[C@@H](C(N)=O)NC(=O)[C@H](CCC)NC(=O)[C@H]([C@@H](C)CC)NC(=O)[C@@H]2C[C@@H](O)CN2C(=O)[C@@H]2CCCN2C(=O)[C@H](Cc2ccccc2)NC(=O)[C@H](Cc2ccc(O)cc2)NC(=O)[C@H](CCC(N)=O)NC(=O)[C@H](CCCNC(N)=O)NC1=O [UPAR-217] (Pentanoyl-C[Cit]QYFP[Hyp]I[Nva][Pen]-NH2; disulfide 1-10)
Key: 1.58 to 10 nM

Exercise: Quote Kd with test system human uPAR (uPAR-Fc) (Homo sapiens, UniProt Q03405) for CCCCC(=O)N[C@H]1CSSC[C@@H](C(N)=O)NC(=O)[C@H](CCC)NC(=O)[C@H]([C@@H](C)CC)NC(=O)[C@@H](CC(=O)O)NC(=O)[C@@H]2CCCN2C(=O)[C@H](Cc2ccccc2)NC(=O)[C@H](Cc2ccc(O)cc2)NC(=O)[C@H](CCC(N)=O)NC(=O)[C@H](CCCNC(=N)N)NC1=O [UPAR-161] (Pentanoyl-CRQYFP[dD]I[Nva]C-NH2; disulfide 1-10)
Key: 10 to 100 nM
